Value source: patent US7531543B2

Tested Target: human hNET (Homo sapiens, UniProt P23975)
Construct: expressed in transfected cells; host or cells: MDCK-Net6 (MDCK cells stably transfected with hNET)
Sequence (P23975 whole entry): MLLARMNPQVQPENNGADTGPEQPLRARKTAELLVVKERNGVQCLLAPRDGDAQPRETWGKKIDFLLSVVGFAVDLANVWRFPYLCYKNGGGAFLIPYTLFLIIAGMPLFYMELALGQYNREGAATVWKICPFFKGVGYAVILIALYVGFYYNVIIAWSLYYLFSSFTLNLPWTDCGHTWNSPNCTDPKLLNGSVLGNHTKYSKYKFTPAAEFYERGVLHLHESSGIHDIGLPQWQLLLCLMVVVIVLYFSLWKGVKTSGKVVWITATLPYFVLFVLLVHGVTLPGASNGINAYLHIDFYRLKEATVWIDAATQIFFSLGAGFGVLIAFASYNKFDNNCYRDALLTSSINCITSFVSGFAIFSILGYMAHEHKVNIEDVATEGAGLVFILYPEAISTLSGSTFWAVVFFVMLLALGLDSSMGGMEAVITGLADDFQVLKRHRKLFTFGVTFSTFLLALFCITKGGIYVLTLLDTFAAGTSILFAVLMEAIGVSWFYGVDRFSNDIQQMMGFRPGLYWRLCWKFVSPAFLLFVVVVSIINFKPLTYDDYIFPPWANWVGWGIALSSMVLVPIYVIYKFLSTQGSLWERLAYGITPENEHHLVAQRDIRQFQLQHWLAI
Assay Info: Norepinephrine (NE) uptake assay in MDCK-Net6 cells
Format: cell-based
Assay Setup: 1 μM test compound; [3H]NE uptake, MDCK-Net6 cells stably transfected with hNET
Structures can show the parent of a compound that is named as a salt.
inhibition at 1 µM of 40% or higher: label 1. Under 40%: label 0.

// known answers, use as guide
CN1CCN(CC(c2ccc(F)cc2)C2(O)CCC2)CC1 (centres unmarked) [Example 32, dihydrochloride]	label 0
COc1ccc(C(CN2CCNCC2)C2(O)CCCC2)cc1Br (centres unmarked) [Example 13, dihydrochloride]	label 1

[ask] Is inhibition at 1 µM for CN1CCN(CC(c2ccc(Cl)cc2)C2(O)CCC2)CC1 (centres unmarked) [Example 30, dihydrochloride] at or above 40%?
[reply] label 0

[ask] Is it the case that OC1(C(CN2CCNCC2)c2cccc(C(F)(F)F)c2)CCC1 (centres unmarked) [Example 14, dihydrochloride] has inhibition at 1 µM reaching or exceeding 40%?
[reply] label 0

[ask] Does the reported inhibition at 1 µM for OC1(C(CN2CCNCC2)c2ccc(F)cc2)CCCCC1 (centres unmarked) [Example 11, dihydrochloride] fall at or above the 40% mark?
[reply] label 1

[ask] Is reported inhibition at 1 µM greater than or equal to 40% here: CN1CCN(CC(c2ccc(Br)cc2)C2(O)CCC2)CC1 (centres unmarked) [Example 21, dihydrochloride]
[reply] label 0

[ask] Check this compound for inhibition at 1 µM at or above 40%: OC1(C(CN2CCNCC2)c2cccc(Br)c2)CCCCC1 (centres unmarked) [Example 3, dihydrochloride]
[reply] label 1

[ask] Is it the case that CN1CCN(CC(c2cccc(Br)c2)C2(O)CCCCCCC2)CC1 (centres unmarked) [Example 40, dihydrochloride] has inhibition at 1 µM reaching or exceeding 40%?
[reply] label 1

* * *

Tested Target: human hNET (Homo sapiens)
Assay Info: Norepinephrine (NE) uptake assay in MDCK-Net6 cells
Assay Setup: [3H]NE uptake, MDCK-Net6 cells stably transfected with hNET; test range 1 to 10,000 nM
Method: MDCK-Net6 cells, stably transfected with human hNET (Pacholczyk, T., R. D. Blakely, and S. G. Amara, Nature, 1991, 350(6316): p. 350-4) were cultured in growth medium containing high glucose DMEM (Gibco, Cat. No. 11995), 10% FBS (dialyzed, heat-inactivated, US Bio-Technologies, Lot FBD1129HI) and 500 µg/ml G418 (Gibco, Cat. No. 10131). Cells were plated at 300,000/T75 flask and cells were split twice weekly. […]
Counter-ions that a name gives are not always drawn.
Quantity Name: pEC50
API: returns pEC50 as number; meaning -log10 of concentration in mol/L.

OC1(C(CN2CCNCC2)c2ccc(F)cc2)CCCCC1 (stereo not shown) [Example 11, dihydrochloride]	5.19

[ask] // pEC50 lookup, key: OC1(C(CN2CCNCC2)c2cccc(F)c2)CCCCC1 (stereo not shown) [Example 9, dihydrochloride]
[reply] 6.14

[ask] Can you look up the measured pEC50 of OC1([C@H](CN2CCNCC2)c2cccc(Cl)c2)CCCCC1 [Example 34, dihydrochloride] for me?
[reply] 7.60

[ask] Which pEC50 reading was recorded for the molecule C[C@@H]1CN(CC(c2cccc(Cl)c2)C2(O)CCCCC2)C[C@H](C)N1 (stereo partly shown) [Example 2, dihydrochloride] ?
[reply] 6.82
